Test system: MDA-MB-468 breast
Assay: NCI tumour cell line growth inhibition, 48 h; in the data active = GI50 below about 0.43 µM; inactive = the rest
Give your call using only these classes: true for active, false for inactive

compound: CCCCCn1sc(=O)n(Cc2ccc(CNC(=O)OCc3ccc4cccc(O)c4n3)cc2)c1=O
class name: false
//
compound: CCN1C(=O)N(CC)C2C1NN=c1s/c(=C3\C(=O)N(CCc4ccccc4)c4ccccc43)c(=O)n12 (stereo not given)
class name: true
//
compound: COc1ccc(-c2oc3cc(O)cc(O)c3c(=O)c2OC)cc1O
class name: false
//
compound: CC(C)(C)CN1CCn2c(nc3c(N)nccc32)S1
class name: false

Look up the recorded call for CC(C)=CCC/C(C)=C/CC/C(C)=C/CC/C=C(\C)CC/C=C(\C)CCC(=O)Nc1ccn(C2OC(CO)C(O)C2(F)F)c(=O)n1 (stereo not given) in this test.
true
